So I've got a bunch of molecules here, and I need their inhibition values.
tgt: Luciferin 4-monooxygenase (Photinus pyralis) (UniProt P08659)
Sequence (P08659 whole entry, looked up): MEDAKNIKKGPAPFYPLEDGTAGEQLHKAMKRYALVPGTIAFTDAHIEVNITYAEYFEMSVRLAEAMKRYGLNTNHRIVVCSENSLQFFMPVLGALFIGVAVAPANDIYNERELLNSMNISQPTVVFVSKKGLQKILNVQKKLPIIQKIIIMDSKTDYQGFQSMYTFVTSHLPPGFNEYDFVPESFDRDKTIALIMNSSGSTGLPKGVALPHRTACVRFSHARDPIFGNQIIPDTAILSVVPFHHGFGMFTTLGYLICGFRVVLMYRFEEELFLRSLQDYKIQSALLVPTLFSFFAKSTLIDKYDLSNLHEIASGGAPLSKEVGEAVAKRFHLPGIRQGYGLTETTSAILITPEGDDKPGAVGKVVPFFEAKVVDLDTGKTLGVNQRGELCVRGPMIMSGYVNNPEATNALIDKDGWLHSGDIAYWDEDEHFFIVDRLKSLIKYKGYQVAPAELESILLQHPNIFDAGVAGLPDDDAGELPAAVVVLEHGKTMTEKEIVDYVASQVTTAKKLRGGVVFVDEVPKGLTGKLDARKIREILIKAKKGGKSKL
procedure.summary: firefly luciferase enzyme inhibitors, primary screen, artefact control for luciferase-based inhibitor screens, biochemical, luminescence, ATPLite (AID 1006)
measurement.conditions: 10 min, at 10 µM, active compounds read high
Among all 200,000 compounds or so, about 3,000 (1.5%) were called active. Many of the other results were omitted from the sample, so actives are more common in it than they were.
Use % as the unit, but write only the number.

Measured inhibition of COc1ccc(C(=O)Nc2ccccc2C(=O)N/N=C/c2ccccc2OC)cc1 : 97.8

What the record says about Cc1cc(C)nc(SCC(=O)N(C)C)n1 : inhibition is -4.6

Per the record, Cc1cccc(NC(=O)NC(=S)NC(=O)c2ccccc2)c1 has inhibition of 12.7

For reference, reported inhibition for O=c1oc2ccccc2cc1-c1csc(Nc2ccc(O)cc2)n1 stands at 17.8

Sure, the documented inhibition for CC(=O)c1sc(NC(=O)c2cccc3ccccc23)nc1C is -4.9

The measured inhibition associated with CC(=O)c1sc(N/N=C\c2ccc(C)cc2)nc1C reads -5.2

Attribution: PubChem BioAssay AID1006
